Measured values drawn from patent US20120093811A1 for this set.

Overview of recorded Kd for various binders
- targetSystem: T1, VEGF-D (recombinant human; source not given) (human, UniProt O43915 89-205, limits assumed)
- T1 construct: also used here as target of IC50 values averaged over Source 1 and Source 2; also called vascular endothelial growth factor-D
- T1 sequence: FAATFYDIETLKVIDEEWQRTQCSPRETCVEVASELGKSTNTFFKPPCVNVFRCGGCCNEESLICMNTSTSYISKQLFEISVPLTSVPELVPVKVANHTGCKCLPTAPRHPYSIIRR
- testSummary: SPR (BIAcore), VEGF-D amine-coupled on CM5, purified scFv as analyte
Field: numeric (nM). Do not append units.

The examples below pair each entry with its known result.
binder	Kd, nM
scFv clone DI26 (scFv, also called DI126) scFv: QVQLVQSGAKVKQPGASVKASCKASGYTFTGYNMYWVRQAPGQGLEWMGYIDPYSGDTTYNQKFKGRVTMTTDTSTSTAYMELRSLRSDDTAVYYCARTSYYGGMDYWGRGTLVTVASGGGASGGGGSGGGGSDIVMTQTPLSSPVTLGQPASISCRSSQSLVHSNGNTYLHWLQQRPGQPPRLLIYKVSNRFSGVPDRFSGSGAGTDFTLKISRVEAEDVGVYYCSQSTHVPRTFGQGTKLEIKR	3.12
scFv clone AR74 (scFv) scFv: QVQLVQSGAEVKQPGASVKVSCKASGYTFTGYNMYWVRQAPGQGLEWMGYIDPYNGDTTYNQKFKGRVTMTTGTSTSTAYMKLRSLRSDDTAVYYCARASYYGGMDYWGRGTLVTVASGGGASGGGGSGGGGSDIVMTQTPLSSPVTLGQPASISCRSSQSLVHSNGNTYLHWLQQRPGQPPRLLIYKVSNRFSGVPDRFSGSGAGTDFTLKISRVEAEDVGVYYCSQSTHVPRTFGQGTKLEIKR	2.12

Attention now turns to another entry.
[Q] Answer with reported Kd of scFv clone AW61 (scFv) scFv: QVQLVQSGAEVKQPGASVKVSCKASGYTFTGYNMYWVRQAPGQGLEWMGYIDPYNGDTTYNQKFKGRATMTTDTSTSTAYMKLRSLRSDDTAVYYCARTSYYGGMDYWGRGTLVTVASGGGASGGGGSGGGGSDIVMTQTPLSSPVTLGQPASISCRSSQSLVHSNGNTYLHWLQQRPGQPPRLLIYKVSNRFSGVPDRFSGSGAGTDFTLKISRVEAEDVGVYYCSQSTHVPRTFGQGTKLEIKR
[A] 4.23
